Hi there, I'd appreciate the recorded inhibition for every entry that follows.
biological target: Secreted aspartic protease 2 (Candida albicans); assay: Inhibition of Candida albicans SAP2 at 10 uM by spectrophotometry relative to pepstatin A
Give bare numbers, in %.

Before answering, review these 2 worked examples.
[[record]]
test_smiles = "CCCCNC(=O)[C@@H]1O[C@@]2(c3ccccc3)CN(C(c3ccccc3)c3ccccc3)C[C@@H]1O2"
quantitative_result = 12

[[record]]
test_smiles = "CCCCNC(=O)[C@@H]1O[C@H]2CN(Cc3ccccc3)C(=O)[C@@H]1O2"
quantitative_result = 18


"CCOC(=O)C1CCN(C(=O)[C@@H]2O[C@@]3(c4ccccc4)CN(C(c4ccccc4)c4ccccc4)C(=O)[C@@H]2O3)CC1" has a reported inhibition of 19

====

target: Secreted aspartic protease 2 (Candida albicans) (UniProt P0CS83); assay: Inhibition of Candida albicans SAP2 at 10 uM by spectrophotometry
Sequence (P0CS83 57-398 limits assumed): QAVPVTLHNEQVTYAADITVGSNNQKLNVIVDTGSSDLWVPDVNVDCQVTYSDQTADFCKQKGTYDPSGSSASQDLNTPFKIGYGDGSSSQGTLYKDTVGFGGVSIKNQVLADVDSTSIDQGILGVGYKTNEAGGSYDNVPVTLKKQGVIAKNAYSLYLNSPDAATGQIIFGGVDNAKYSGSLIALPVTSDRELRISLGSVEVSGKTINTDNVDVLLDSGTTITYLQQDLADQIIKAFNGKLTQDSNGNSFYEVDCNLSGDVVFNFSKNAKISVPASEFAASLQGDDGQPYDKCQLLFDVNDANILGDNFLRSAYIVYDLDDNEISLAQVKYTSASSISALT
Record criterion met whenever inhibition is at 10% or higher; record criterion not met when lower.

[[record]]
test_smiles = "O=C([C@@H]1O[C@H]2CN(Cc3ccccc3)C(=O)[C@@H]1O2)N1CCN(CCO)CC1"
group_label = "criterion met"


Request: Is inhibition for "CCCCNC(=O)[C@@H]1O[C@@H]2O[C@H]1C(=O)N(Cc1ccccc1)[C@H]2Cc1ccccc1" at or above 10%?
Response: criterion not met

====

Hi there, I'd appreciate the recorded inhibition for every entry that follows.
molecular target: Secreted aspartic protease 2 (Candida albicans) (UniProt P0CS83); assay: Inhibition of Candida albicans SAP2 at 20 uM by spectrophotometry relative to pepstatin A
Numbers only, in %.

Before answering, review these 8 worked examples.
[[record]]
compound = "O=C(N[C@@H](CO)Cc1ccccc1)[C@@H]1O[C@H]2CN(Cc3ccccc3)C(=O)[C@@H]1O2"
quantitative_result = 29

[[record]]
compound = "NCCNC(=O)[C@@H]1O[C@H]2CN(Cc3ccccc3)C(=O)[C@@H]1O2"
quantitative_result = 63

[[record]]
compound = "O=C(N[C@H](CO)Cc1ccccc1)[C@@H]1O[C@H]2CN(Cc3ccccc3)C(=O)[C@@H]1O2"
quantitative_result = 30

[[record]]
compound = "C[C@@H](CO)NC(=O)[C@@H]1O[C@H]2CN(Cc3ccccc3)C(=O)[C@@H]1O2"
quantitative_result = 35

[[record]]
compound = "CC(C)C[C@H](CO)NC(=O)[C@@H]1O[C@H]2CN(Cc3ccccc3)C(=O)[C@H]1O2"
quantitative_result = 29

[[record]]
compound = "CC(C)C[C@@H](CO)NC(=O)[C@H]1OC2CN(Cc3ccccc3)C(=O)C1O2 (single isomer, unassigned)"
quantitative_result = 33

[[record]]
compound = "O=C([C@@H]1O[C@H]2CN(Cc3ccccc3)C(=O)[C@@H]1O2)N1CCCNCC1"
quantitative_result = 63

[[record]]
compound = "O=C(NCCO)[C@@H]1O[C@H]2CN(Cc3ccccc3)C(=O)[C@@H]1O2"
quantitative_result = 71


Consider the following items and state reported inhibition for each.
1. O=C1[C@@H]2O[C@H](CN1Cc1ccccc1)O[C@H]2C(=O)N1CCC[C@H]1CO
2. CC(C)C[C@@H](CO)NC(=O)[C@@H]1O[C@H]2CN(Cc3ccccc3)C(=O)[C@@H]1O2
3. CCOC(=O)N1CCN(C(=O)[C@@H]2O[C@H]3CN(Cc4ccccc4)C(=O)[C@@H]2O3)CC1
4. CC(C)C[C@@H](CO)N(Cc1ccccc1)C(=O)[C@@H]1O[C@H]2CN(Cc3ccccc3)C(=O)[C@@H]1O2

Response:
1. 48
2. 71
3. 74
4. 35

Consider the following items and state reported inhibition for each.
1. O=C([C@H]1O[C@H]2CN(Cc3ccccc3)C(=O)[C@@H]1O2)N1CCCCC1
2. O=C([C@@H]1O[C@H]2CN(Cc3ccccc3)C(=O)[C@@H]1O2)N1CCN(CCO)CC1
3. O=C(N[C@@H](CO)c1ccccc1)[C@@H]1O[C@H]2CN(Cc3ccccc3)C(=O)[C@@H]1O2
4. O=C([C@@H]1O[C@H]2CN(Cc3ccccc3)C(=O)[C@@H]1O2)N1CCSCC1

Response:
1. 50
2. 58
3. 31
4. 58
